Target under test: T1, mouse SPNS2 (mouse, UniProt Q91VM4 1-549)
T1 sequence: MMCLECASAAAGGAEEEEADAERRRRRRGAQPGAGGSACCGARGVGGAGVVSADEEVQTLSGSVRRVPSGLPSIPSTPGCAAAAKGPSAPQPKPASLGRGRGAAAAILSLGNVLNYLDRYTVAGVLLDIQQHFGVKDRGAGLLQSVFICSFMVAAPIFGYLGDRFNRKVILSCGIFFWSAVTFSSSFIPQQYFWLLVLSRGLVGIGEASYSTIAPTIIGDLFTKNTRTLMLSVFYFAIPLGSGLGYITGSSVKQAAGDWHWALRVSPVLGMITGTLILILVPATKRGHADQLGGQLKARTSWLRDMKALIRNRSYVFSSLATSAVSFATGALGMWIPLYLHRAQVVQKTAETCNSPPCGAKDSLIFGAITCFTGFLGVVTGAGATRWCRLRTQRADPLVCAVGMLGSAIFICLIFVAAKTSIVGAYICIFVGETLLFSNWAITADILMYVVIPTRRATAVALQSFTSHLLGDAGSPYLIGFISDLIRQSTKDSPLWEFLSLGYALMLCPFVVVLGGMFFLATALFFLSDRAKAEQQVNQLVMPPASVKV
Assay text: cell-based or functional assay
Below, each entry is listed alongside its reported pIC50, S1P transport inhibition (LC-MS/MS of S1P).

Here is how some binders turned out for pIC50, S1P transport inhibition (LC-MS/MS of S1P).
INSERT INTO assay_data (binder, result) VALUES
  ('94-1311E (antibody, V domains shown) VH: EVQLQQSGAGLVRPRTSVRLSCKISGDSITAYYVHFVKQRPGQGLEWIGRIDPEDDSTKYSEKFKNKATLTADVSSSTAYLILSSLTSDDSATYFCSTLTGLDYWGQGVMVTVSS VL: DIQMTQSPPVLSASVGDRVTLSCKASQSVHNKLDWYQQKHGEAPKLLIYYTHNLQTGIPSRFSGSGSGSDYTLTISSLRAEDVATYYCFQYYSGWTFGGGTKLEMKR', '8.2 pIC50 (M)'),
  ('84-1111F (antibody, IgG2b, V domains shown) VH: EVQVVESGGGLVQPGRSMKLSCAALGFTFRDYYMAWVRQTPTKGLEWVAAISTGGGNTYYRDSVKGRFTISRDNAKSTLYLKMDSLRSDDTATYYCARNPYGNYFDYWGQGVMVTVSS VL: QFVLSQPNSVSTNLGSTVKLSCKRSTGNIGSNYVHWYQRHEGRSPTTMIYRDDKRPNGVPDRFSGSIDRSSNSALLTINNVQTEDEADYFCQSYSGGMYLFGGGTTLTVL', '8.3 pIC50 (M)');

Value of measured pIC50, S1P transport inhibition (LC-MS/MS of S1P) for the entry 53-0707E (antibody, IgG2b, V domains shown) VH: EVQLQQSGAELVRPRTSVKLSCKVSGDSITRYYVHFVKQRPGQGLEWIGRIDPEDDTTKYSEKFKKKATLTADASSNTAYLIFSGLTSEDTATYFCSTLTGLDYWGQGVMVTVSS VL: DIQMTQSPPVLSTSVGDRVTLRCKASQNVHSKLDWYQQKHGEAPKLLIYYTHNLQTGIPSRFSGSGSGTDYTLTISSLQPEDVATYYCFQYYSGWTFGGGTKLEMKR : 7.6 pIC50 (M)
